Ref: patent US8435939B2

Test: Cytotoxicity Test II: human PBMC, trypan blue dyeing method
Format: cell-based
Conditions: peripheral blood mononuclear cells (PBMC); human PBMC, trypan blue dyeing method; read-out: CC50 (Test II), 50% survival concentration
ENDPOINT NAME: CC50

I'd like to know its CC50. The molecule in question is Cc1cn([C@H]2C[C@H](N=[N+]=[N-])[C@@H](CO)O2)c(=O)[nH]c1=O [AZT, 3′-azido-2′,3′-dideoxythymidine, reference compound]
< 20 µM

----------
Assay: Cytotoxicity Test I: virus-uninfected MT-4 cells, MTT method
Format: cell-based
Details: human, MT-4 cells (virus-uninfected); virus-uninfected MT-4 cells, MTT method; read-out: CC50 (Test I), 50% survival concentration
Experimental: HIV-1 (IIIB) strain obtained from MOLT/HIV-1 (IIIB) cell previously infected by HIV-1 was used. The polypeptide of the present invention was added to MT-4 CD4^+ T cells infected by HIV in various kinds of concentrations, and a number of living cells after culturing at 37° C. for 5 days was determined by using a 3′-(4,5-dimethylthiazol-2-yl)-2,5-diphenyltetrazolinium bromide (MTT) method. […]
Where a SMILES comes first, the peptide text is derived from it. Bridges are numbered along the chain shown (N, C = ends). [ ]: non-standard residue; d: D form. 2Nal = N[C@@H](Cc1ccc2ccccc2c1)C(=O)O; Cit = NC(=O)NCCC[C@H](N)C(=O)O
ENDPOINT NAME: CC50

- COMPOUND: "NCCCC[C@@H]1NC(=O)[C@H](CCCN=C(N)N)NC(=O)[C@H](Cc2ccc(O)cc2)NC(=O)[C@@H](NC(=O)[C@H](Cc2ccc3ccccc3c2)NC(=O)[C@H](CCCN=C(N)N)NC(=O)[C@@H](N)CCCN=C(N)N)CSSC[C@@H](C(=O)N[C@@H](CCCN=C(N)N)C(=O)O)NC(=O)[C@H](CCCNC(N)=O)NC(=O)[C@H](CCCNC(N)=O)NC(=O)[C@H](Cc2ccc(O)cc2)NC(=O)[C@@H]2CCCN2C(=O)[C@@H](CCCCN)NC1=O [TC14006] (H-RR[2Nal]CYRK[dK]PY[Cit][Cit]CR-OH; disulfide 4-13)"
  CC50: "> 80 µM"

Turning now to a further compound:
I'd like to know its CC50. The compound in question is `N=C(N)NCCC[C@H](NC(=O)[C@@H]1CSSC[C@H](NC(=O)[C@H](Cc2ccc3ccccc3c2)NC(=O)[C@H](CCCNC(=N)N)NC(=O)[C@@H](N)CCCNC(N)=O)C(=O)N[C@@H](Cc2ccc(O)cc2)C(=O)N[C@@H](CCCNC(=N)N)C(=O)N[C@@H](CCCCN)C(=O)N[C@H](CCCNC(N)=O)C(=O)N2CCC[C@H]2C(=O)N[C@@H](Cc2ccc(O)cc2)C(=O)N[C@@H](CCCNC(=N)N)C(=O)N[C@@H](CCCNC(N)=O)C(=O)N1)C(N)=O`
> 100 µM

----------
Tested on: virus-uninfected MT-4 cells
Test: Cytotoxicity Test I: virus-uninfected MT-4 cells, MTT method
Format: cell-based
Details: selective index, MT-4 CC50 over anti-HIV EC50
Where a SMILES comes first, the peptide text is derived from it. Bridges are numbered along the chain shown (N, C = ends). [ ]: non-standard residue; d: D form. 2Nal = N[C@@H](Cc1ccc2ccccc2c1)C(=O)O; Cit = NC(=O)NCCC[C@H](N)C(=O)O
ENDPOINT NAME: SI: CC50 (Test I)/EC50

- COMPOUND: "C[C@H](N)C(=O)N[C@@H](CCCNC(=N)N)C(=O)N[C@@H](Cc1ccc2ccccc2c1)C(=O)N[C@H]1CSSC[C@@H](C(=O)N[C@@H](CCCNC(=N)N)C(=O)O)NC(=O)[C@H](CCCNC(N)=O)NC(=O)[C@H](CCCNC(=N)N)NC(=O)[C@H](Cc2ccc(O)cc2)NC(=O)[C@@H]2CCCN2C(=O)[C@@H](CCCCN)NC(=O)[C@H](CCCCN)NC(=O)[C@H](CCCNC(=N)N)NC(=O)[C@H](Cc2ccc(O)cc2)NC1=O [TA14001] (H-AR[2Nal]CYRK[dK]PYR[Cit]CR-OH; disulfide 4-13)"
  TESTED SYSTEM: "virus-uninfected MT-4 cells"
  REPORTED VALUE: ">750"

I'd like to know its SI: CC50 (Test I)/EC50. The compound in question is NCCCC[C@@H]1NC(=O)[C@H](CCCN=C(N)N)NC(=O)[C@H](Cc2ccc(O)cc2)NC(=O)[C@@H](NC(=O)[C@H](Cc2c[nH]c3ccccc23)NC(=O)[C@H](CCCN=C(N)N)NC(=O)[C@@H](N)CCCN=C(N)N)CSSC[C@@H](C(=O)N[C@@H](CCCN=C(N)N)C(=O)O)NC(=O)[C@H](CCCNC(N)=O)NC(=O)[C@H](CCCN=C(N)N)NC(=O)[C@H](Cc2ccc(O)cc2)NC(=O)[C@@H]2CCCN2C(=O)[C@@H](CCCCN)NC1=O [Compound T134, reference compound] (H-RRWCYRK[dK]PYR[Cit]CR-OH; disulfide 4-13)
>>120
